molecular target: Voltage-dependent calcium channel gamma-2 subunit (Mus musculus) + Glutamate receptor 2 (Rattus norvegicus) (UniProt O88602+P19491); experiment: modulators of GluA2-stargazin AMPA receptor complexes, primary screen, cell-based, membrane potential dye (AID 1259245); details: HEK293 GluA2+stargazin, membrane potential dye (FDSS), glutamate EC50, at 30 µM, hits were called plate by plate, in both directions
Sequence (O88602 whole entry, looked up): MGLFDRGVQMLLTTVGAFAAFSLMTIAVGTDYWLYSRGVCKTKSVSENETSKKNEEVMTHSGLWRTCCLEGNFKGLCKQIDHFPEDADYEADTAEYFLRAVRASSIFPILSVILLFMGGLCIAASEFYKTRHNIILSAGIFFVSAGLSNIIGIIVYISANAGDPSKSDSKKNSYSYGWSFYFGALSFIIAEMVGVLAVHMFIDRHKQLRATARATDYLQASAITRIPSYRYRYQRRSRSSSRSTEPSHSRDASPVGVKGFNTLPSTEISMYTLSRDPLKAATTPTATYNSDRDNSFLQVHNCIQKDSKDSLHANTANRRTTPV
Sequence (P19491 whole entry, looked up): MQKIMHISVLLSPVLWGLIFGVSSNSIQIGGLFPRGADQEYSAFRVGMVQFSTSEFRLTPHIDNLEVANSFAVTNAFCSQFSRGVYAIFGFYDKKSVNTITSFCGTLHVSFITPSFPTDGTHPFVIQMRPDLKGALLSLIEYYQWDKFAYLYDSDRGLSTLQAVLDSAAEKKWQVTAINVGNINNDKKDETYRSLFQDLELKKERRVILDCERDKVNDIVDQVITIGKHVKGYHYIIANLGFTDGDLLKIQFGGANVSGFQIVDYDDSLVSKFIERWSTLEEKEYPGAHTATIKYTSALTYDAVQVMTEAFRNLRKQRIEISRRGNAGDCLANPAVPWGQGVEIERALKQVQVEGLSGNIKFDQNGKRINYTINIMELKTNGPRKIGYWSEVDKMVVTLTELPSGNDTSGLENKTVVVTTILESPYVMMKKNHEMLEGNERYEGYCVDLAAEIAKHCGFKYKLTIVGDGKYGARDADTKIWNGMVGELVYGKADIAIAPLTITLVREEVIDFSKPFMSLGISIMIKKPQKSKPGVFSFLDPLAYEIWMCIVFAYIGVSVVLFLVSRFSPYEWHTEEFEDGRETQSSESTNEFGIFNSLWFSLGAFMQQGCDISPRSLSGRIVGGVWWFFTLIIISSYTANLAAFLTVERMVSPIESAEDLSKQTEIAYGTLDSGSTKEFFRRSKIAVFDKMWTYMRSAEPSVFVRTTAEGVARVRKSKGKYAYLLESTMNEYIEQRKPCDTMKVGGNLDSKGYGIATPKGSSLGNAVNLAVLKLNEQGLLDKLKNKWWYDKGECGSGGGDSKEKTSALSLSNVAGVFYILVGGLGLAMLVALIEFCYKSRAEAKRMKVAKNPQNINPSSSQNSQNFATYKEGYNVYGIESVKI
Hit rate of the full screen: of about 40,000 compounds, about 1,400 (3.5%) were called active.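 The calls were made as follows: active = any of four per-well response measures lying three or more SD from its plate-wide compound average, in either direction; inactive = the rest, inconclusive results apart.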 This excerpt belongs to a sample that is enriched for actives.
API: response.call in active, inactive

Check the results log: what was the call for "Cc1c(Cl)ccc2sc(N(Cc3ccccn3)C(=O)Cc3ccc(S(C)(=O)=O)cc3)nc12" ?
inactive

Test call, this molecule: O=C(NCC(O)(c1ccccc1)C1CC1)c1ccccc1Br (configuration not stated)
inactive

Dear colleague, could you share the recorded outcome for "Cc1cc(N(C)C)nc(-n2cc([N+](=O)[O-])cn2)n1" when you have a moment?
active

For "CCCn1c(N2CCC(C(N)=O)CC2)nc2c1c(=O)n(C)c(=O)n2C" , which call appears in the assay record?
inactive

Recorded test call requested for "Cc1ccc(-n2ccnc2N2CCN(CC(=O)Nc3ccc4c(c3)OCO4)CC2)cc1"
inactive

Each molecule tested received a call. Report the one for "COC(=O)c1ccc2c(=O)n(Cc3ccc(C(=O)N4CCCCCC4)cc3)c(=S)[nH]c2c1" .
inactive

Recorded test call requested for "O=C(Nc1sc2ccccc2c(=O)c1-c1ccc2c(c1)OCO2)c1ccco1"
inactive

Status in this test for Cc1ccc(S(=O)(=O)N2CCCCC2CCN)cc1 (configuration not stated) ?
inactive

Hi, do you know how COc1ccc(C(CNC(=O)c2ccccc2Cl)N2CCOCC2)cc1 (configuration not stated) came out in this test?
active

For this molecule, state the assay outcome: COc1ccc(C(CNC(=O)c2cc(C)cc(C)c2)N2CCOCC2)cc1 (configuration not stated)
inactive

Assay outcome for "COc1nn(C)cc1C(=O)NCC(=O)Nc1cccc(C)c1C" : what was it?
active

Could you check what this test reported for CCSc1ccccc1C(=O)NCC(O)(c1ccccc1)C1CC1 (configuration not stated) ?
active
